# TARGET_ENTITY: recombinant human baculovirus-expressed GST-tagged FASN (Homo sapiens)
# Construct: GST
# Sequence (P49327 whole entry): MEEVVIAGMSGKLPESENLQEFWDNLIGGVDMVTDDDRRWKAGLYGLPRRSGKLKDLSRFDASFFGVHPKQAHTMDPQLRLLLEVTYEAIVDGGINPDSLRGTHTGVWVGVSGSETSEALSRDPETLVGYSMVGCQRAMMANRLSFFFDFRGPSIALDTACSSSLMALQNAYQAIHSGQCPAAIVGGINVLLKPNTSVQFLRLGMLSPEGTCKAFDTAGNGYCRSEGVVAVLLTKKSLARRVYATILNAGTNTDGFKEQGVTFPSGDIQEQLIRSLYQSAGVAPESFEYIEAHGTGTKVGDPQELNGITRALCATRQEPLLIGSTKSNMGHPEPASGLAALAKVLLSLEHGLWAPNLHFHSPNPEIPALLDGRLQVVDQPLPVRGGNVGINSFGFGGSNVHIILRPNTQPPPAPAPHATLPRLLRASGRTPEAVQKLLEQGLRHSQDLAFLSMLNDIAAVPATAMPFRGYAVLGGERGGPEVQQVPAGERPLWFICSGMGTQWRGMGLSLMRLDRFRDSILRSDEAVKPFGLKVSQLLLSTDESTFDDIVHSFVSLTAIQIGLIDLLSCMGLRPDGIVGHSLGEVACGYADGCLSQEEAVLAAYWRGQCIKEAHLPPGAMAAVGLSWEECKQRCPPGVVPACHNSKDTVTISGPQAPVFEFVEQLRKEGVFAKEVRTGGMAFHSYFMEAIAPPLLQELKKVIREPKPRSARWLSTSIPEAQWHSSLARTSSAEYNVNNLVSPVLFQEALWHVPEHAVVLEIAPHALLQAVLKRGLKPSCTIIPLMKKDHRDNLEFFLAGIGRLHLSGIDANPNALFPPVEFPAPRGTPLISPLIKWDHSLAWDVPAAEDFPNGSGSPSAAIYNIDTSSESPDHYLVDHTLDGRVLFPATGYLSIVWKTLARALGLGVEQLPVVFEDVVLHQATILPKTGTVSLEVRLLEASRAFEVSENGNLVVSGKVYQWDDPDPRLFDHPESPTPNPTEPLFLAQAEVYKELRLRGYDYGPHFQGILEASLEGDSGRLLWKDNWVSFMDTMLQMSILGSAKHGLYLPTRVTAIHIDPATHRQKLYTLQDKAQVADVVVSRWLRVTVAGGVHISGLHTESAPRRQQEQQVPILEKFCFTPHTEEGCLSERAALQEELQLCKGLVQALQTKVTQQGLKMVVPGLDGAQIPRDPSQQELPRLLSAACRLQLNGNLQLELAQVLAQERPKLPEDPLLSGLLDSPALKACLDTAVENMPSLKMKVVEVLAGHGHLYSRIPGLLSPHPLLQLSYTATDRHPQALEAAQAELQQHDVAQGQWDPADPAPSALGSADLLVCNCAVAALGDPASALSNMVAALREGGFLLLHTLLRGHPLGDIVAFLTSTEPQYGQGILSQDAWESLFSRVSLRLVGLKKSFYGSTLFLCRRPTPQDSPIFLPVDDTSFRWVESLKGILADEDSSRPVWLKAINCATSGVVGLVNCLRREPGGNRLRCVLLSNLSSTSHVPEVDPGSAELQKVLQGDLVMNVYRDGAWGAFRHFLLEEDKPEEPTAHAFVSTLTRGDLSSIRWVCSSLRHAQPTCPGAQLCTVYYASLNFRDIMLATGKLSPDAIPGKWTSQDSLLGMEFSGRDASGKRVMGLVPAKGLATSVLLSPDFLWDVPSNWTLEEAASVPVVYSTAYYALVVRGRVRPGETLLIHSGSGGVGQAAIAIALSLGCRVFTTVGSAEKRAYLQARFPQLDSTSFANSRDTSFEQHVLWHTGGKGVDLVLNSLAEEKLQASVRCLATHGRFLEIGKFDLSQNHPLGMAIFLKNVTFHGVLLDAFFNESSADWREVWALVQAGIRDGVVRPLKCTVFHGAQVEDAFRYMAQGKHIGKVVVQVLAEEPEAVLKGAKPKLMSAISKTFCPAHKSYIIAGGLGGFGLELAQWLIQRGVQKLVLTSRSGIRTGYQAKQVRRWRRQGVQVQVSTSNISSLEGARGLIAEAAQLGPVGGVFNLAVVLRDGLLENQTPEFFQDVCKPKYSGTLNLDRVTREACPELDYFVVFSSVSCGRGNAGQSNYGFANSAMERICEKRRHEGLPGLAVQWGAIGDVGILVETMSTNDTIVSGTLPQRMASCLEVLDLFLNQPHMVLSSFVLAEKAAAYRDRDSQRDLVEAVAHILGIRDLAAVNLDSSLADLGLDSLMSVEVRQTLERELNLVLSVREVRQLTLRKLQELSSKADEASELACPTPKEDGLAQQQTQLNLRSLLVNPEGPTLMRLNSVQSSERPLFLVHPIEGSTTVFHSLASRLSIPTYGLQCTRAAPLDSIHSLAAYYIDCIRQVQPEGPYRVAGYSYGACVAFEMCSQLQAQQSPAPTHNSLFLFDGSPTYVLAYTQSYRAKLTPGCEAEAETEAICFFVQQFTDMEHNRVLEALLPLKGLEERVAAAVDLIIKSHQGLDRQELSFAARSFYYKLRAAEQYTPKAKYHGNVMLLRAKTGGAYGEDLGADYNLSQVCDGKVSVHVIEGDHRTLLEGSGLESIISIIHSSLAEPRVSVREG
# ASSAY_DETAILS: FASN enzyme activity assay, fluorescence-based detection of CoA with CPM
# Type: biochemical
# EXPERIMENTAL_SETUP: 5 nM FASN, 150 μM NADPH, 10 μM acetyl-CoA, 25 μM malonyl-CoA, 90 minutes incubation; read-out: IC50 data for Compounds of Formulae I-V/V(a): Activity
pIC50: −log10 of the molar value. Structures can show the parent of a compound that is named as a salt.
MEASUREMENT_KIND: pIC50

Count: 5. Required value per item: pIC50.
1. COc1cc(-c2cnc3ccccc3c2)ccc1OC1CCN(C(=O)C2CC2)CC1 [Example 198]
2. O=C(C1CC1)N1CCC(Oc2ccc(-c3cnc4cccc(F)c4c3)cc2)CC1 [Example 30]
3. CCC(=O)N1CCC(Oc2ccc(-c3cnc4ccccc4c3C)cc2F)CC1 [Example 228]
4. CCC(=O)N1CCC(Oc2ccc(-c3cnc4ccccc4c3NC)cc2)CC1 [Example 235]
5. CCC(=O)N1CCC(Oc2ccc(-c3cc(C)cc4ncccc34)cc2)CC1 [Example 348, HCl]

Return:
1: 5.00 to 6.00; 2: 7.00 to 9.00; 3: 6.00 to 7.00; 4: 5.00 to 6.00; 5: 7.00 to 9.00

* * *

# TARGET_ENTITY: recombinant human baculovirus-expressed GST-tagged FASN (Homo sapiens)
# Construct: GST
# ASSAY_DETAILS: FASN enzyme activity assay, fluorescence-based detection of CoA with CPM
# Format: biochemical
# EXPERIMENTAL_SETUP: 5 nM FASN, 150 μM NADPH, 10 μM acetyl-CoA, 25 μM malonyl-CoA, 90 minutes incubation; read-out: IC50 data for Compounds of Formulae I-V/V(a): Activity
# Text: FASN Enzyme activity may be determined by detecting coenzyme A (CoA), a product of FASN-catalyzed synthesis of palmitate from acetyl-CoA and malonyl-CoA with NADPH as a cofactor. The assay is fluorescence-based and measures the interaction of free CoA with 7-diethylamino-3-(4′-malemimidylphenyl)-4-methylcoumarin (CPM; Life Technologies, CA) as described in Chung et al (2008). […]
pIC50: −log10 of the molar value. Counter-ions that a name gives are not always drawn.
MEASUREMENT_KIND: pIC50

{"COMPOUND": "O=C(C1CC1)N1CCC(Oc2ccc(-c3cnc4sccc4c3)cc2)CC1 [Example 255, TFA salt]", "TARGET_ENTITY": "recombinant human baculovirus-expressed GST-tagged FASN (Homo sapiens)", "pIC50": "7.00 to 9.00"}
{"COMPOUND": "O=C([C@H]1CCCO1)N1CCC(Oc2ccc(-c3ccc4cccnc4c3Cl)cc2)CC1 [Example 260, TFA salt]", "TARGET_ENTITY": "recombinant human baculovirus-expressed GST-tagged FASN (Homo sapiens)", "pIC50": "7.00 to 9.00"}
{"COMPOUND": "CC(=O)N1CCC(Oc2ccc(-c3cnc4ccccc4c3)cc2)CC1 [Example 112, HCl]", "TARGET_ENTITY": "recombinant human baculovirus-expressed GST-tagged FASN (Homo sapiens)", "pIC50": "6.00 to 7.00"}
{"COMPOUND": "O=C(C1CC1)N1CCC(Oc2ccc(-c3ccc4cccnc4c3)cn2)CC1 [Example 137, HCl]", "TARGET_ENTITY": "recombinant human baculovirus-expressed GST-tagged FASN (Homo sapiens)", "pIC50": "6.00 to 7.00"}
{"COMPOUND": "O=C(C1CC1)N1CCC(Oc2ccc(-c3cnc4cccnc4c3)cc2)CC1", "TARGET_ENTITY": "recombinant human baculovirus-expressed GST-tagged FASN (Homo sapiens)", "pIC50": "5.00 to 6.00"}
{"COMPOUND": "O=C(C1CC1)N1CCC(Oc2cc(F)c(-c3cnc4ccccc4c3)cc2F)CC1", "TARGET_ENTITY": "recombinant human baculovirus-expressed GST-tagged FASN (Homo sapiens)", "pIC50": "6.00 to 7.00"}

For each of the items listed, what is its pIC50?
1. COc1cc(-c2ccc(OC3CCN(C(=O)[C@H]4CCCO4)CC3)cc2)cn2nccc12 [Example 424, HCl]
2. O=C([C@H]1CCCO1)N1CCC(Oc2ccc(-c3ccc4ccccc4n3)cc2)CC1

Return:
["7.00 to 9.00", "7.00 to 9.00"]
